# testName: qHTS assay to identify small molecule agonists of the estrogen receptor alpha (ER-alpha) signaling pathway in the presence of an antagonist - cell viability counter screen (AID 1259386);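 further: cells exposed to compounds for 22 h at 37 °C before the viability read; nearly all actives have a fitted effect of over 30% in size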
# particulars: VM7Luc4E2 viability, CellTiter-Fluor fluorescence, 22 h; series mostly up to 92.4 µM
Inconclusive results are not listed. Activity calls are given as the source filed them. The call rests on the fitted dose curve; in most records, active means well fitted cell-killing curve with a large enough effect in the repeat runs; inconclusive means weak or mixed curves, or effect the other way; inactive means no such curve, though single readings can be large or run the other way.
// allowed return values: label 1 for active, label 0 for inactive

Cc1cccc(OP(=O)(Oc2cccc(C)c2)Oc2cccc(C)c2)c1 | label 0
COc1ccc(/C(=C/C(=O)N2CCOCC2)c2ccc(Cl)cc2)cc1OC | label 0
CC1(C)CC/C(=C/c2ccc(Cl)cc2)C1(O)Cn1cncn1 (configuration not stated) | label 0
CC(Cl)CN(C)C (configuration not stated) | label 0
Nc1ccccc1C(=O)Oc1ccc2ccccc2c1 | label 0

Please indicate how the test categorized COCC(=O)N(c1c(C)cccc1C)[C@H](C)C(=O)OC .
label 0

Query: recorded result category for Clc1ccc(CCC(Cn2ccnc2)Sc2c(Cl)cccc2Cl)cc1 (configuration not stated) in this test
label 0

How was Oc1c(Br)c(Br)c(Br)c(Br)c1Br classified in this test?
label 0

Give the logged outcome of this assay for the following compound: ClC1=C(Cl)[C@]2(Cl)[C@@H]3[C@@H](Cl)[C@H](Cl)C[C@@H]3[C@@]1(Cl)C2(Cl)Cl
label 0

Give the logged outcome of this assay for the following compound: C=CC(=O)OCCCCOC(=O)C=C
label 0

// param item: CCCCCCCCCCCCCCCCCCn1cc[n+](C)c1 ; yields the recorded call
label 1

Call for entry C=CCOC(N)=O :
label 0
